assayed target: Short transient receptor potential channel 6 (Mus musculus) (UniProt Q61143)
Sequence (Q61143 whole entry, looked up): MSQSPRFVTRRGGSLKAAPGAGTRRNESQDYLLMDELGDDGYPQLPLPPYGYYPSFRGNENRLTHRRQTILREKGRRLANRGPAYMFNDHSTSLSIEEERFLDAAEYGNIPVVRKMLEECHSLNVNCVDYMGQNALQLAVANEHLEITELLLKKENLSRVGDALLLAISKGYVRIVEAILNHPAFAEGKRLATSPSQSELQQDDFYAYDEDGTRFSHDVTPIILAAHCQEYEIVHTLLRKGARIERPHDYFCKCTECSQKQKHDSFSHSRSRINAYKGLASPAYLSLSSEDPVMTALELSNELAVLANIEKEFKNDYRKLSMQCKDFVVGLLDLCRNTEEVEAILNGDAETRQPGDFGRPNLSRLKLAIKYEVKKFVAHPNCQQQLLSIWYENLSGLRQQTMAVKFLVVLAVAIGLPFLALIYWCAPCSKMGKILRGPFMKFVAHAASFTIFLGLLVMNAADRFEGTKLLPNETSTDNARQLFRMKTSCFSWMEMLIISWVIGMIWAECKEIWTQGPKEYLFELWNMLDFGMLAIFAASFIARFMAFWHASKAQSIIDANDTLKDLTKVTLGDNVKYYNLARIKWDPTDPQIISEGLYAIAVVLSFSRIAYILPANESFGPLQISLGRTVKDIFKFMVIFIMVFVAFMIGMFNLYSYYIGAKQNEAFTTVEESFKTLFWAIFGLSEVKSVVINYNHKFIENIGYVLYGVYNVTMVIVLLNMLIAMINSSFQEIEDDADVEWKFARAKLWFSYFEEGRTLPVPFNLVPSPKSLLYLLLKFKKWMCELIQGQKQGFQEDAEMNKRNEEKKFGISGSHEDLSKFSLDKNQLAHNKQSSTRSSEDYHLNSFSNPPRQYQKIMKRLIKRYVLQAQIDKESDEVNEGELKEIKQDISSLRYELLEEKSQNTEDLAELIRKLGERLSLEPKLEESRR
protocol: mouse TRPC6 channel activators, confirmation, HEK293 cells, membrane potential dye, duplicate (AID 488961)
test conditions: HEK293-TRPC6 membrane potential dye fluorescence, FDSS, at 10 µM
The other results are listed elsewhere or left out. The source made the active and inactive calls.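 Rule for the calls: active = ratio signal rise beyond 5 SD above unstimulated control wells' mean, seen in both duplicate runs; inactive = the rest.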
Response enum: active, inactive

Hi team, can someone confirm the assay call for CC(NCc1ccccc1OC1CCCC1)c1ccccc1 (stereo not given) ? active

Check the results log: what was the call for `Cc1ccc2nc(C)c3c(c2c1)N(c1ccccc1)CC3` ? inactive

Please let me know the test result on file for `O=C(NCCc1c[nH]c2ccccc12)C1CCN(Cc2ccc(Br)cc2)CC1` . inactive

Lab log entry: Cc1cc2oc3ccc(NCCC4CCCN4C)cc3c(=O)c2cc1C (stereo not given) — outcome as called in the assay? inactive

Called result for CC(Nc1nc(N2CCCC2)nc2ccccc12)c1ccccc1 (stereo not given) inactive
